We begin with a simple list: items and their reported glycan array binding signal (z-score).
Molecular target: Gal(b1-4)GlcNAc(b1-2)[Gal(b1-4)GlcNAc(b1-4)]Man(a1-3)[GlcNAc(b1-4)][Gal(b1-4)GlcNAc(b1-2)Man(a1-6)]Man(b1-4)GlcNAc(b1-4)GlcNAc
Assay: glycan array binding signal (z-score within array); higher = stronger binding
Settings: glycan notation: IUPAC condensed, linker removed
The entries come from a sample that favours the strongest signals as a whole.
assay-readout: glycan array binding signal (z-score)

binder	assay-readout	measured-number
PFL (Pseudomonas fluorescens) (protein) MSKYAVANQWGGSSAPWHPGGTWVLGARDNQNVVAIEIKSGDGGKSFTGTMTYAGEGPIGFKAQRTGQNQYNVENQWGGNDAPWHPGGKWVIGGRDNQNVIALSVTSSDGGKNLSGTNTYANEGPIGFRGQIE	glycan array binding signal (z-score)	-0.117
rMpL (Macrolepiota procera) (protein) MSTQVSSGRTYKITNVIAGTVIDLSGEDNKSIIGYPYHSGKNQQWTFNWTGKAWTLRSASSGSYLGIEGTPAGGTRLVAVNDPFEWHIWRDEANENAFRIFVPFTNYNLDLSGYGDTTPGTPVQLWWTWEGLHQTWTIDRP	glycan array binding signal (z-score)	1.46
Gal 10 (Homo sapiens), Q05315 (protein) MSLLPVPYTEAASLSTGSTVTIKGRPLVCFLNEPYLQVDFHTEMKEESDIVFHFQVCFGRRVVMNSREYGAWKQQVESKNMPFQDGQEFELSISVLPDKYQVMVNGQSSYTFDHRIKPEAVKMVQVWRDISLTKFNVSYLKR	glycan array binding signal (z-score)	-0.708
Drgal1 (Danio rerio) (protein) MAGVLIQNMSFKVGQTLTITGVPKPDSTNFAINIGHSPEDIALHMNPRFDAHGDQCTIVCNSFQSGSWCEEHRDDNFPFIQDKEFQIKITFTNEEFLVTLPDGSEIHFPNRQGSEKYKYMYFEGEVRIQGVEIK	glycan array binding signal (z-score)	-0.015
Arath Fbox (Arabidopsis thaliana), NP_178341.1 (protein) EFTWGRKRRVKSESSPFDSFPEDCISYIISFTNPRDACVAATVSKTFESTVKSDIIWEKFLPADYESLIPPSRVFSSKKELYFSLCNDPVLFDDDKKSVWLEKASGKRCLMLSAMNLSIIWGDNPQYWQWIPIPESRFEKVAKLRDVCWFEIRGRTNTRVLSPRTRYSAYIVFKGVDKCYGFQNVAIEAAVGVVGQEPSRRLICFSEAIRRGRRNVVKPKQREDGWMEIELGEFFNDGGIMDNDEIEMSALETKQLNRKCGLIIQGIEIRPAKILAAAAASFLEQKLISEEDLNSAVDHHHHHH	glycan array binding signal (z-score)	-0.348
AAL (Aleuria aurantia), P18891 (protein) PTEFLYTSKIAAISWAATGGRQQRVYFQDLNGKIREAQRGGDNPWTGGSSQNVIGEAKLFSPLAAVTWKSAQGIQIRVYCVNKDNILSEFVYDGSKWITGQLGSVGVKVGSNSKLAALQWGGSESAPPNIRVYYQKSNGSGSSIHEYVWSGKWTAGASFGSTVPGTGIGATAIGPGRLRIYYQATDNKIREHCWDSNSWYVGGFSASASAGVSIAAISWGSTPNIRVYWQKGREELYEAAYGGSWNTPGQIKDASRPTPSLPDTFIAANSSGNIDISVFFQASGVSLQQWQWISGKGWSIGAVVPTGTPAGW	glycan array binding signal (z-score)	-0.348
SUN4 (Saccharomyces cerevisiae), P53616 (protein) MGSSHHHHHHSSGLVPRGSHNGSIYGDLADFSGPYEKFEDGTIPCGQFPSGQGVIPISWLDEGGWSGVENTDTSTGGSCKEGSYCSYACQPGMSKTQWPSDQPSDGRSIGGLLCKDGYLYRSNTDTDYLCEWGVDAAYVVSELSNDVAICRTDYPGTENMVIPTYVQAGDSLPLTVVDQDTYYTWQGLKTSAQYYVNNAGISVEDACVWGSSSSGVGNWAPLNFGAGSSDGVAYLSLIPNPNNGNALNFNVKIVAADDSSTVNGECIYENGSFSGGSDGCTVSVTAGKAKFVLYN	glycan array binding signal (z-score)	0.208
